Test system: Leishmania donovani
Test: Leishmania intramacrophage assay
Format: functional, organism-based
Parameters: scale not given: in the data most compounds retested in dose-response had high values
Details: 30.3 µM; […]
In all, about 69,000 compounds went through this assay and about 1,000 (1.4%) showed an effect of 50% or more. This excerpt belongs to a sample that is enriched for strong results.
Below is a list of entries, each paired with its recorded Percent Effect value.
// units = %; emit number, no label

Would you please look over these solved cases?
Cc1ccc2c(n1)N(Cc1cccnc1)CCN(Cc1cnn(C)c1)C2 = 76.22
CCOCC1CN(C(=O)Cc2cccs2)Cc2ccnn2C1 (stereo not given) = 34.28
CN[C@@H]1CCC[C@@H](Oc2ccccc2Oc2ccc(C)cc2)[C@@H]1O = 98.74
COc1ccc(CN2CC[C@H](O)[C@@H]2Cc2cnn(C)c2)cc1.O=C(O)C(F)(F)F = 36.9

I am curious: what Percent Effect value has been reported for CN(C)CCN(Cc1ccccn1)Cc1ccnn1C1CCCCO1.O=C(O)CC(O)(CC(=O)O)C(=O)O (stereo not given) ?
29.57
